These data points were gathered from patent US20200071424A1.

Parameter: kon. Scope: all listed entries.
ASSAY SYSTEM: cynomolgus monkey EL (cynomolgus monkey)
MEASUREMENT NOTES: Biacore; EL captured by anti-C2-tag Ab; bivalent fit
Hey, just the number and the unit after it is fine.

h53A11-S2 (antibody, V domains shown) VH: QVQLVQSGAEVKKPGASVKVSCKASGYTFTDYTMHWVRQAPGQRLEWMGGINPYYGGTTYNEKFKDRVTITRDTSASTAYMELSSLRSEDTAVYYCAKGDYYGGSYNYWGQGTTVTVSS VL: EIVMTQSLATLSVSPGERATLSCRASQDISNSLHWYQQKPGQAPRLLIYYASQSISGIPARFSGSGSGTEFTLTISSLQSEDFAVYYCQQSNSWPYTFGQGTKLEIK :: 150000 M⁻¹ s⁻¹

For the next question, use this binder.
Prompt line: May I ask what kon has been recorded for h13B3-S3 (antibody, V domains shown) VH: QVQLVQSGAEVKKPGASVKVSCKASGYTFTEYTMHWVRQAPGQGLEWMGSINPYYGGTSYNEKFKDRVTMTRDTSTSTVYMELSSLRSEDTAVYYCARYGNYVGYFDYWGQGTTVTVSS VL: EIVLTQSPATLSLSPGERATLSCRASSSVHYMYWYQQKPGQAPRLLIYYTSNLAPGIPARFSGSGSGTDFTLTISSLEPEDFAVYYCQQFTSSPYTFGGGTKVEIK ?
Response line: 66000 M⁻¹ s⁻¹
